Taken from the supplement of paper PMC10567573.

B1: DYRK1B (parent)
chain: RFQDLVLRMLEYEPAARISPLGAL

Variants of: B1
Assay: protein stability index of a GFP-peptide fusion (GPS, HEK-293T) (PSI 1-6); higher = more stable;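 note: lentivirally expressed fusions sorted by FACS into six bins by GFP to DsRed ratio, PSI derived from sequencing read proportions per bin multiplied by bin number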
Conditions: c terminus: a fixed tail appended
Outcome label depends on protein stability index relative to 3: at/above gives 1 (yes), below gives 0 (no).

# example entries with known answers
1. S19D :: 0 (no)
2. R17N :: 0 (no)
3. R1T :: 0 (no)
4. Y12W :: 0 (no)
5. A15R :: 1 (yes)

Request: Please check the record A23Q and state if its protein stability index is at or above 3.
Response: 0 (no)

Request: Could you tell me if the measured protein stability index of P20Y reaches 3 or more?
Response: 1 (yes)

Request: Is protein stability index for V6W at or above 3?
Response: 0 (no)
